Just for reference, patent US20100075960A1 is where these values come from.

Assign pIC50 to each entry below.
Test system: Hela
assay.info: Inhibition of cell proliferation, Hela
Assay type: cell-based
condition.context: Homo sapiens, Cervical, 72 h, methylene blue or CellTiter-Glo
pIC50: −log10 of the molar value.

INSERT INTO results (chemical_smiles, measured_attribute, recorded_result) VALUES
  ('C[C@@H](Oc1cc(-n2cnc3cc(-c4cnn(C)c4)ccc32)sc1C(N)=O)c1cccc(OC2CCN(C)CC2)c1Cl', 'pIC50', '> 6.30');

Problem: Fill in: pIC50 of `C[C@@H](Oc1cc(-n2cnc3cc(-c4cnn(C)c4)ccc32)sc1C(N)=O)c1cccc(OC2CCN(CCS(C)(=O)=O)CC2)c1Cl` is ___
Solution: > 6.30

----------
System: HCC1937
assay.info: Inhibition of cell proliferation, HCC1937
Assay type: cell-based
condition.context: Homo sapiens, breast, 72 h, methylene blue or CellTiter-Glo
measured.attribute: IC50

Problem: Fill in: IC50 of `C[C@@H](Oc1cc(-n2cnc3cc(-c4cnn(C)c4)ccc32)sc1C(N)=O)c1cccc(OC2CCN(C)CC2)c1Cl` is ___
Solution: > 1000 nM

----------
Tested on: SW156
assay.info: Inhibition of cell proliferation, SW156
Assay type: cell-based
condition.context: kidney; 72 h; methylene blue or CellTiter-Glo
pIC50: −log10 of the molar value.
measured.attribute: pIC50

Problem: State its pIC50 on SW156: `C[C@@H](Oc1cc(-n2cnc3cc(-c4cnn(C)c4)ccc32)sc1C(N)=O)c1cccc(OC2CCN(C)CC2)c1Cl`
Solution: < 6.00

----------
Tested on: LNCaP
assay.info: Inhibition of cell proliferation, LNCaP
Type: cell-based
condition.context: Homo sapiens, Prostate, 72 h, methylene blue or CellTiter-Glo
Assign IC50 to each entry below.

INSERT INTO measurements (compound, target_under_test, recorded_result) VALUES
  ('C[C@@H](Oc1cc(-n2cnc3cc(-c4cnn(C)c4)ccc32)sc1C(N)=O)c1cccc(OC2CCN(C)CC2)c1Cl [Example 48]', 'LNCaP', '< 500 nM');

Here's the next entry for you.
Problem: State its IC50 on LNCaP: C[C@@H](Oc1cc(-n2cnc3cc(-c4cnn(C)c4)ccc32)sc1C(N)=O)c1cccc(OC2CCN(CCS(C)(=O)=O)CC2)c1Cl [Example 31]
Solution: 500 to 1000 nM

----------
System: Calu1
assay.info: Inhibition of cell proliferation, Calu1
Format: cell-based
condition.context: Homo sapiens, Calu-1; lung; 72 h; methylene blue or CellTiter-Glo
Protocol: II. Inhibition of Cell Proliferation by PLK1 Inhibitors. Exponentially growing cell lines of different tumor origins, cultured in appropriate media containing 10% fetal bovine serum at 37° C. in a 5% CO2 incubator were plated in 96 or 384-well plates. […] Seventy two hours post-treatment, cell numbers were determined using different techniques; 100 μl per well of methylene blue (Sigma M9140) (0.5% in 50:50 Ethanol:water), or 10-100 μl per well of CellTiter-Glo (Promega #G7573), depending on well size. […]
pIC50: −log10 of the molar value.
measured.attribute: pIC50

Problem: Fill in: pIC50 of `C[C@@H](Oc1cc(-n2cnc3cc(-c4cnn(C)c4)ccc32)sc1C(N)=O)c1cccc(OC2CCN(C)CC2)c1Cl` is ___
Solution: > 6.30
